Tested on: SK-MEL-5 melanoma
ASSAY INFO: NCI tumour cell line growth inhibition, 48 h
The reader will find reported TGI values listed item by item below.
OBSERVATION TYPE: TGI (µM)

O=C(Nc1cc(Cl)ccc1O)c1ccccc1Nc1ccnc(C(F)(F)F)c1: 4.27
O=C(Nc1ccc(Cl)cc1C(=O)O)c1ccc([N+](=O)[O-])cc1: 48.7
CC(=O)Nc1cc2cc(NS(=O)(=O)c3ccc(Cl)c(Cl)c3)ccc2oc1=O: 58.6

* * *

System: IGROV1 ovarian
ASSAY INFO: NCI tumour cell line growth inhibition, 48 h
OBSERVATION TYPE: TGI

COc1ccc(/C=C/C(=O)c2c(-c3ccccc3)nn(C)c(=O)c2N2CCOCC2)cc1: > 100 µM
CCN(CC)C(=S)SCC(=O)Nc1nc2c(s1)CCCC2: > 100 µM
CC/C(Cl)=N\OC(=O)Nc1ccc(OC)c(C)c1: 39.1 µM
O=C(N/C(=C\c1ccccc1O)c1nc2ccccc2[nH]1)c1ccccc1: > 100 µM
c1ccc2c(c1)c1c3c(c4c(n32)=NCCN4)CCC1: > 100 µM
O=C(c1ccc([N+](=O)[O-])cc1)C(Br)C(Br)c1ccnc2ccccc12 (stereo not given): 30 µM
O=C(Nc1cc(Cl)ccc1O)c1cccc(Nc2ccnc(C(F)(F)F)c2)c1: 33.9 µM
COc1ccccc1/C=C\C(=O)C1COCN1 (stereo not given): 64.6 µM
CCN(CC)c1ccc(-c2cc(-c3cc(OC)c(OC)c(OC)c3)nc(N3CCC(O)CC3)c2C#N)cc1: > 27.7 µM
N#CC1(C#N)C=CC(=C2OCC3CCCN23)C=C1 (stereo not given): > 100 µM
CC(C)OC(=O)[C@H]1ON2O[C@H](O[C@@H]3CCCC[C@H]3c3ccccc3)C([Si](C)(C)c3ccccc3)[C@H]3OC(=O)[C@@H]1C32 (stereo not given in full): > 100 µM
CO[C@@]12C[C@@H](C)[C@]34O[C@H]3C[C@]3(C)O[C@]43CC1=C(C)C(=O)O2: > 100 µM
CN1C(=O)C(C(=O)Nc2ccccn2)C2C[C@@]1(C)Oc1ccccc12 (stereo not given in full): > 100 µM
O=C(/C=C/c1ccccn1)c1ccc(OCc2nnc(-c3ccc(Cl)cc3)o2)cc1: 3.62 µM
NS(=O)(=O)c1ccc(NC(=O)C2C(=O)C(=O)N(c3ccc(S(N)(=O)=O)cc3)C2=O)cc1 (stereo not given): > 100 µM
COc1cc2c(c(OC)c1OC)-c1ccc(SC)c(=O)cc1[C@@H](NC(=O)C(F)(F)F)CC2: > 100 µM
Nc1cc2ncnn2c(SCC(=O)N/N=C/C(Br)=C\c2ccccc2)n1: 24.6 µM
COC1=C2CC(C)CC(OC)C(OC(=O)CN)[C@H](C)/C=C(\C)C(OC(N)=O)C(OC)/C=C\C=C(/C)C(=O)NC(=CC1=O)C2=O (stereo not given in full): 1.62 µM
O=C(Nc1ccccc1)OC1OC(COC(=O)c2ccccc2)C(OC(=O)c2ccccc2)C1OS(=O)(=O)c1ccc([N+](=O)[O-])cc1 (stereo not given): > 100 µM
NC(CCP(=O)(O)O)C(=O)O (stereo not given): > 100 µM
